tested on: COLO 205 colorectal tumor cells; assay: Tumor cell viability inhibition assay (CellTiter-Glo 2.0, 72 hours); format: cell-based; settings: Homo sapiens, COLO 205, 72 h, COLO 205 cell viability
pIC50: −log10 of the molar value.
measured_property: pIC50

Consider the worked cases shown below.
Consider the compound Cc1cc(-c2cc(Cl)ccc2OCCn2c(C)nc3c(c2=O)C[C@@H](N2CCC[C@]4(C2)CC4(F)F)CC3)c2scc(C(=O)O)c2n1 (single isomer, unassigned) . State its measured pIC50.
> 5.30

Look up and state reported pIC50 for Cc1cc(-c2cc(Cl)ccc2OCCn2c(C)nc3c(c2=O)C[C@H](N2CC[C@H](F)C2)CC3)c2scc(C(=O)NS(C)(=O)=O)c2n1 (single isomer, unassigned)
> 5.30

Please give measured pIC50 of the following entry: Cc1cc(-c2cc(Cl)ccc2OCCn2c(C)nc3c(c2=O)C[C@@H](N2CCC(c4ccccc4OC(F)(F)F)CC2)CC3)c2scc(C(=O)O)c2n1 (single isomer, unassigned)
> 5.30

Output measured pIC50 for this item: Cc1cc(-c2cc(Cl)ccc2OCCn2c(C)nc3c(c2=O)CC(N2CCc4sccc4C2)CC3)c2scc(C(=O)O)c2n1 (stereo not drawn)
> 5.30

State its pIC50: Cc1cc(-c2cc(Cl)ccc2OCCn2c(C)nc3c(c2=O)CC(N2CC(C)(N(C)C)C2)CC3)c2scc(C(=O)O)c2n1 (stereo not drawn)
< 4.70

More entries:
Determine its reported pIC50: Cc1cc(-c2cc(Cl)ccc2OCCn2c(C)nc3c(c2=O)CC(N(C)C2CCCC2)CC3)c2scc(C(=O)O)c2n1 (stereo not drawn)
> 5.30

###

Listing of recorded pIC50 by entry.
tested on: COLO 205 colorectal tumor cells; assay: Tumor cell viability inhibition assay (CellTiter-Glo 2.0, 72 hours); type: cell-based; conditions: Homo sapiens, COLO 205, 72 h, COLO 205 cell viability
pIC50: −log10 of the molar value.

Return the recorded pIC50 value; entry: Cc1cc(-c2cc(Cl)ccc2OCCn2c(C)nc3c(c2=O)C[C@@H](N2C[C@@H]4CC(F)(F)C[C@@H]4C2)CC3)c2scc(C(=O)NS(C)(=O)=O)c2n1 (relative stereo) [Compound 369]
> 5.30

State its pIC50 for this compound: CO[C@@H]1CCN([C@@H]2CCc3nc(C)n(CCOc4ccc(Cl)cc4-c4cc(C)nc5c(C(=O)O)csc45)c(=O)c3C2)CC1(C)C (single isomer, unassigned) [Compound 376]
> 5.30

Give pIC50 for the following compound: Cc1cc(-c2cc(Cl)ccc2OCCn2c(C)nc3c(c2=O)C[C@H](N2CCC[C@H](C(F)(F)F)C2)CC3)c2scc(C(=O)O)c2n1 (single isomer, unassigned) [Compound 381]
> 5.30

Give recorded pIC50. Cc1cc(-c2cc(Cl)ccc2OCCn2c(C)nc3c(c2=O)C[C@@H](N2CCCC(C)[C@@H]2C(F)(F)F)CC32CC2)c2scc(C(=O)O)c2n1 (single isomer, unassigned) [Compound 625]
4.70 to 5.30

// next entry
Provide measured pIC50 value, entry: Cc1cc(-c2cc(Cl)ccc2OCCn2c(C)nc3c(c2=O)C[C@@H](N2CC[C@H](OC(F)(F)F)C2)CC3)c2scc(C(=O)O)c2n1 (single isomer, unassigned) [Compound 388]
> 5.30
